Source listed as paper PMC5540273.

Provide the reported %Inh of each item.
# System: PRKD3
# Protocol Conditions: concentration: 1 μM, replicates: in singlicate; n = 1;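 further: KINOMEscan kinase panel screen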
Please respond with the number in % and leave the unit unwritten.

Data request: Param item = Cl.c1ccc(-c2ccc3c(Nc4ccc5[nH]ncc5c4)ccnc3c2)nc1 ; retrieve measured %Inh.
Data returned: 17

Data request: Now consider CN(C)Cc1ccc(-c2ccc3c(Nc4ccc(Oc5ccccn5)cc4)ccnc3c2)o1 .
Data returned: 0

Data request: Next up: O=C(Nc1ccccc1F)NC1CCN(c2ccnc(Nc3ccc(F)cc3)n2)CC1
Data returned: 0

Data request: // next record CNC(=O)c1ccccc1Nc1nc(Nc2ccc(N3CCOCC3)cc2)ncc1Cl.Cl
Data returned: 81

Data request: Please give the result for COc1ccc(-c2coc3ccc(-c4nnc(SCc5ccc(OC)c(C(F)(F)F)c5)o4)cc23)cc1 too.
Data returned: 0

Data request: Same again, this time with CSc1cccc2c(-c3ccncn3)c(-c3ccc(F)cc3)nn12
Data returned: 100

Data request: Moving on to c1ccc(-c2cnc3nccnn23)cc1
Data returned: 0

Data request: Again, but for COc1cc(Nc2ncc3c(C)nc(-c4cc5ccccc5[nH]4)n3n2)cc(OC)c1OC
Data returned: 0

Data request: Query COc1ccc(CNC(=O)NC2CCN(c3ccnc(Nc4ccc(F)cc4)n3)CC2)cc1 next
Data returned: 0

Data request: Likewise for CC(=O)Nc1nc2cnc(Nc3cc(NC(=O)c4cccc(C5(C#N)CC5)c4Cl)ccc3C)nc2s1 ?
Data returned: 0

Data request: Next: Cc1ccc(C)c(NC(=O)NC2CCN(c3ccnc(Nc4ccc(F)cc4)n3)C2)c1 (centres unmarked)
Data returned: 0

Data request: Thanks! And COc1cc(Nc2nccc(N3CCC(NC(=O)Nc4cccc(C(C)=O)c4)C3)n2)cc(OC)c1OC (centres unmarked) ?
Data returned: 0

Data request: Another: CCn1c(-c2nonc2N)nc2c(C#CC(C)(C)O)nc(OC[C@H](N)c3ccccc3)cc21
Data returned: 22

Data request: Same question, CC(C)(C)c1ccc2nccc(Nc3cccc(O)c3)c2c1 this time
Data returned: 77

Data request: Now try C[C@@H](Oc1cc(-n2cnc3cc(-c4ccnc(NCCS(C)(=O)=O)c4)ccc32)sc1C(N)=O)c1ccccc1Cl .
Data returned: 0

Data request: Item: Cl.NC(=O)c1cccc(Nc2nccc(Nc3ccc(Oc4c(Cl)cccc4Cl)c(Cl)c3)n2)c1
Data returned: 21

Data request: Item: Cl.Cl.NCC(C(=O)Nc1cc(Br)c(-c2ccnc3[nH]ccc23)s1)c1ccccc1 (centres unmarked)
Data returned: 41

* * *

# System: MAP3K2
# Protocol Conditions: concentration: 1 μM, replicates: in singlicate; n = 1
Entries whose %Inh is below 10% take 1.0; entries at or above 10% take 0.0.

Data request: Does O=C(Nc1cccc(Oc2ccc3nc(NC(=O)C4CC4)cn3n2)c1)c1ccccc1C(F)(F)F have %Inh strictly under 10%?
Data returned: 1.0

Data request: Follow-up item: COc1cc(Nc2nccc(-c3c(-c4cccc(NC(=O)c5c(F)cccc5F)c4)nn4ncccc34)n2)cc(OC)c1OC [GSK327238]
Data returned: 0.0

Data request: One more molecule: Nc1ncnc2c1nc(-c1ccccc1)n2-c1ccccc1 [SKF-97293]
Data returned: 0.0

Data request: Thanks! And COCCOCCOc1cc2ncc3c4ccc(C#N)cc4[nH]c3c2cc1OC ?
Data returned: 1.0

Data request: O=C(Nc1n[nH]c2nc(-c3ccc(O)cc3)ccc12)C1CC1 [SB-710363] , same question.
Data returned: 0.0

Data request: Also Cl.Cl.NCC(NCc1ccc(-c2ccnc3[nH]ccc23)s1)c1ccccc1 (centres unmarked) [GSK1321565] ?
Data returned: 0.0

Data request: Now this one: CC(=O)N1CCN(c2ccc(Nc3nccc(-c4sc(C(C)C)nc4-c4cccc(NS(=O)(=O)c5cccc(Cl)c5)c4)n3)cn2)CC1 [GSK1660437]
Data returned: 1.0

Data request: Then what about the molecule Oc1cc(Nc2ccnc3cc(I)ccc23)ccc1F [GW552771] ?
Data returned: 1.0

* * *

Field: %Inh. Provide a value for each of the compounds that follow.
# System: ITK
# Protocol Conditions: concentration: 1 μM, replicates: in singlicate; n = 1
Express the result in % but write the number alone.

Data request: Give the measured %Inh of Cc1ccc(C(=O)Nc2ccc(Nc3ccnc4cc(-c5nccs5)ccc34)cc2O)cc1.Cl .
Data returned: 0

Data request: Let us now turn to O=C(O)C(F)(F)F.O=C(O)C(F)(F)F.O=c1[nH]ccc2nc(N[C@@H]3CCCNC3)nc(Nc3ccc(S(=O)(=O)N4CCOCC4)cc3)c12
Data returned: 86

Data request: Param item: COc1cc(Nc2ncc3c(C)nc(-c4cc5ccccc5[nH]4)n3n2)cc(OC)c1OC
Data returned: 43

Data request: Follow-up entry: Nc1ncc(-c2ccc3nccc(-c4ccncc4)c3c2)cc1S(=O)(=O)N1CCOCC1
Data returned: 11

Data request: Ok, now COc1ccc(CNC(=O)NC2CCN(c3ccnc(Nc4ccc(F)cc4)n3)CC2)cc1
Data returned: 0

Data request: Now give it for COc1cccc(NC(=O)NC2CCN(c3ccnc(Nc4cc(OC)c(OC)c(OC)c4)n3)C2)c1 (stereo not shown) too.
Data returned: 25

Data request: Repeat with Cc1cccc(NC(=O)Nc2ccc(Oc3ncnc4ccn(C)c34)cc2)c1
Data returned: 0

Data request: Same read-out for O=C(Nc1cccc(Oc2ccc3nc(NC(=O)C4CC4)cn3n2)c1)c1ccccc1C(F)(F)F ?
Data returned: 0

Data request: Input COc1cc2c(cc1OCCN1CCNCC1)ncc1c3ccc(C#N)cc3[nH]c21
Data returned: 23

Data request: Note, next up: Cl.Cl.NCC(NCc1ccc(-c2ccnc3[nH]ccc23)s1)c1ccccc1 (stereo not shown)
Data returned: 13

Data request: O=C(Nc1cccc(-c2nn3ccccc3c2-c2ccnc(Nc3cccc(C(F)(F)F)c3)n2)c1)c1c(F)cccc1F , same question.
Data returned: 6

Data request: For CC(=O)Nc1nc2cnc(Nc3cc(NC(=O)c4cccc(C5(C#N)CC5)c4Cl)ccc3C)nc2s1 then?
Data returned: 0

Data request: Now give it for Cc1ccc(S(=O)(=O)Nc2ccc(Nc3nccc(Nc4cccc5[nH]ncc45)n3)cc2)cc1 too.
Data returned: 29

Data request: Okay, and Clc1ccc(-c2nn3ncccc3c2-c2ccnc(Nc3ccc4c(c3)OCCO4)n2)cc1 ?
Data returned: 0

Data request: Moving on to Cc1occc1-c1ncc(OC[C@@H](N)Cc2c[nH]c3ccccc23)cc1-c1ccc2[nH]nc(C)c2c1.O=C(O)C(F)(F)F
Data returned: 12

Data request: Ok, now c1ccc(Oc2ccc(Nc3ccnc4cc(-c5ccc(CNCCN6CCOCC6)o5)ccc34)cc2)nc1
Data returned: 0

* * *

# System: PHKG2
# Protocol Conditions: concentration: 1 μM, replicates: in singlicate; n = 1
Value Kind: %Inh

Data request: Query: %Inh; subject: Cc1cccc(NC(=O)Nc2ccc(Oc3ncnc4ccn(C)c34)cc2)c1
Data returned: 0%

Data request: Entry to check: O=C(O)C(F)(F)F.O=C(O)C(F)(F)F.O=c1[nH]ccc2nc(N[C@@H]3CCCNC3)nc(Nc3ccc(S(=O)(=O)N4CCOCC4)cc3)c12
Data returned: 94.7%

Data request: And the next one, COc1cccc(NC(=O)NC2CCN(c3ccnc(Nc4cc(OC)c(OC)c(OC)c4)n3)C2)c1 (stereo not shown) ?
Data returned: 0%

Data request: Try the molecule O=C(Nc1cccc(-c2nn3ccccc3c2-c2ccnc(Nc3cccc(F)c3)n2)c1)c1c(F)ccc(F)c1Cl
Data returned: 0%

Data request: Now consider Cc1ccc(C)c(NC(=O)NC2CCN(c3ccnc(Nc4ccc(F)cc4)n3)C2)c1 (stereo not shown) and answer again.
Data returned: 0%

Data request: Can you check COc1cc(Nc2ncc3c(C)nc(-c4cc5ccccc5[nH]4)n3n2)cc(OC)c1OC next?
Data returned: 0%

Data request: // next record CCn1c(-c2nonc2N)nc2c(C#CC(C)(C)O)ncc(OCCCCN)c21.O=C(O)C(F)(F)F.O=C(O)C(F)(F)F
Data returned: 0%

Data request: What about Nc1ncc(-c2ccc3nccc(-c4ccncc4)c3c2)cc1S(=O)(=O)N1CCOCC1 ?
Data returned: 0%

Data request: Also, CC(C)c1nc(-c2cccc(NS(=O)(=O)c3c(F)cccc3F)c2F)c(-c2ccnc(Nc3ccc(N4CCOCC4)nc3)n2)s1 please.
Data returned: 0%

Data request: # iterate: COc1cccc(-c2ccc3c(NC(=O)C4CC4)n[nH]c3n2)c1
Data returned: 0%

Data request: Same thing, different molecule: COc1cc2c(cc1OCCN1CCNCC1)ncc1c3ccc(C#N)cc3[nH]c21
Data returned: 99.3%

Data request: Repeat for the following molecule: Cc1cccc(Nc2nc(N[C@H]3CCNC3)ncc2C(N)=O)c1.Cl
Data returned: 68%

Data request: Next up: Cl.Cl.NCC(NC(=O)c1cc(-c2ccccc2)c(-c2ccnc3[nH]ccc23)s1)c1ccccc1 (stereo not shown)
Data returned: 0%

Data request: Please give the result for CN1CCN(CCCNc2nccc(-c3c(-c4ccc(F)cc4)nn4cc(C(F)(F)F)ccc34)n2)CC1 too.
Data returned: 0%

Data request: Here is the next molecule: COCCOCCOc1cc2ncc3c4ccc(C#N)cc4[nH]c3c2cc1OC
Data returned: 97.7%

Data request: Can you handle Nc1n[nH]c2cnc(-c3ccccc3)cc12 next?
Data returned: 0%
